Reference for the values: PubChem BioAssay AID1159580

- Experiment: chemical genetic growth profiling, strain panel (AID 1159580);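 note: tested at 20 µM; growth read once vehicle control cultures reached saturation at 30 °C; 1 = growth at the plate median or of vehicle wells; lower values mean less growth of the strain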
- Condition context: S. cerevisiae deletion strains, growth OD, locus YLR058C, strain SHM2, hits give low values
The whole screen tested about 5,500 compounds, of which about 2,000 (36%) were called active. Inconclusive results (about 18%) are left out. The list shows a part of the results.
Quick reference for normalized growth among some compounds

[
  {
    "Compound": "CC(=O)CC(c1ccccc1)c1c(O)c2ccccc2oc1=O (stereo not drawn)",
    "normalized growth": "1.01 (inactive)"
  },
  {
    "Compound": "CC(=O)O[C@@H]1CC2C(C)(C)[C@H](O)C[C@H](O)[C@]2(C)C2CC[C@@]3(C)[C@H](c4ccoc4)OC(=O)[C@H]4O[C@]43[C@@]21C (stereo partly drawn)",
    "normalized growth": "0.982 (inactive)"
  },
  {
    "Compound": "NCCc1ccc(O)c(O)c1",
    "normalized growth": "0.985 (inactive)"
  },
  {
    "Compound": "O=c1c(-c2cc(O)c(O)c(O)c2)coc2cc(O)c(O)c(O)c12",
    "normalized growth": "0.377 (active)"
  },
  {
    "Compound": "CC(C)c1ccc2c(c1O)CC[C@H]1C3=C(CC[C@]21C)C(=O)OC3",
    "normalized growth": "0.911 (inactive)"
  },
  {
    "Compound": "CC(C)[C@]12O[C@H]1[C@@H]1O[C@@]13[C@@]1(C)CCC4=C(COC4=O)[C@@H]1C[C@@H]1O[C@@]13C2=O",
    "normalized growth": "1.01 (inactive)"
  },
  {
    "Compound": "CCCCCCCCCCCCCCCC[n+]1ccccc1",
    "normalized growth": "0.0432 (active)"
  },
  {
    "Compound": "CC(=O)Nc1ccc(OC(=O)c2ccccc2O)cc1",
    "normalized growth": "0.941 (inactive)"
  },
  {
    "Compound": "Cn1c(=O)c2[nH]c(C3CCCC3)nc2n(C)c1=O",
    "normalized growth": "1.01 (inactive)"
  },
  {
    "Compound": "Nc1ccc(C(=O)O)c(O)c1 (tested in a mixture with another compound)",
    "normalized growth": "0.989 (inactive)"
  },
  {
    "Compound": "C=C1C(N)CC2CC1C2(C)C (stereo not drawn)",
    "normalized growth": "1.02 (inactive)"
  },
  {
    "Compound": "C[n+]1cc2c3c(ccc2c2ccc4cc5c(cc4c21)OCO5)OCO3",
    "normalized growth": "0.0596 (active)"
  },
  {
    "Compound": "COc1cc2cc[n+]3cc4c(OC)c(OC)ccc4cc3c2cc1OC",
    "normalized growth": "0.985 (inactive)"
  },
  {
    "Compound": "O=c1c2ccccc2[se]n1-c1ccccc1",
    "normalized growth": "0.955 (inactive)"
  },
  {
    "Compound": "CC(=O)Oc1c(-c2ccccc2)oc2c(CC=C(C)C)c3c(c(OC(C)=O)c2c1=O)C=CC(C)(C)O3",
    "normalized growth": "0.891 (active)"
  },
  {
    "Compound": "Cc1cc2cc3c(C)cc(=O)oc3c(C)c2o1",
    "normalized growth": "0.971 (inactive)"
  },
  {
    "Compound": "CC(=O)O[C@@H]1CC2C(C)(C)CCC(=O)[C@]2(C)C2CC[C@@]3(C)[C@H](c4ccoc4)OC(=O)C4OC43[C@@]21C (stereo partly drawn)",
    "normalized growth": "0.992 (inactive)"
  },
  {
    "Compound": "O=c1[nH]c2cc(Cl)c(Cl)cc2[nH]c1=O",
    "normalized growth": "1.01 (inactive)"
  },
  {
    "Compound": "CCCN1C[C@H](CSC)C[C@@H]2c3cccc4[nH]cc(c34)C[C@H]21",
    "normalized growth": "1.01 (inactive)"
  },
  {
    "Compound": "CC(=O)Oc1cc(-c2coc3cc(OC(C)=O)c(OC(C)=O)c(OC(C)=O)c3c2=O)cc(OC(C)=O)c1OC(C)=O",
    "normalized growth": "0.272 (active)"
  },
  {
    "Compound": "COc1ccc2cc3[n+](cc2c1OC)CCc1cc2c(cc1-3)OCO2",
    "normalized growth": "0.409 (active)"
  },
  {
    "Compound": "O=c1c2ccccc2oc2ccc(O)cc12",
    "normalized growth": "0.886 (active)"
  },
  {
    "Compound": "CC(=O)OC1CC2C(C)(C)CCCC2(C)C2CCC3(C)C(c4ccoc4)OC(=O)C4OC43C12C (stereo not drawn)",
    "normalized growth": "1.01 (inactive)"
  },
  {
    "Compound": "CC(C)=CCc1c2c(c(O)c3c(=O)c(O)c(-c4ccccc4)oc13)C=CC(C)(C)O2",
    "normalized growth": "0.563 (active)"
  },
  {
    "Compound": "C[N+]1(CCCCC[N+]2(C)CCCC2)CCCC1",
    "normalized growth": "1.01 (inactive)"
  },
  {
    "Compound": "COc1cc([C@@H]2c3cc4c(cc3[C@H](O)[C@H]3COC(=O)[C@@H]23)OCO4)cc(OC)c1OC",
    "normalized growth": "1.01 (inactive)"
  },
  {
    "Compound": "COc1cc([C@@H]2c3cc4c(cc3[C@H](OC(C)=O)[C@H]3COC(=O)[C@H]23)OCO4)cc(OC)c1OC",
    "normalized growth": "0.998 (inactive)"
  },
  {
    "Compound": "Cc1coc2ccccc2c1=O",
    "normalized growth": "1 (inactive)"
  },
  {
    "Compound": "O=c1oc2ccccc2c(O)c1Cc1c(O)c2ccccc2oc1=O",
    "normalized growth": "1 (inactive)"
  },
  {
    "Compound": "O=C1CC[C@]23C=CC(=O)NCCCCNCCCNC(=O)/C=C/c4ccc(c2c4)O[C@@H]3C1",
    "normalized growth": "1.01 (inactive)"
  },
  {
    "Compound": "CN(N=O)C(=O)N[C@@H]1[C@@H](O)[C@H](O)[C@@H](CO)O[C@@H]1O",
    "normalized growth": "1.01 (inactive)"
  },
  {
    "Compound": "Nc1ccc(C(=O)Oc2ccccc2)c(O)c1",
    "normalized growth": "0.909 (inactive)"
  },
  {
    "Compound": "CCC(CCC(C)[C@H]1CCC2C3CC=C4C[C@@H](O)CC[C@]4(C)C3CC[C@@]21C)C(C)C (stereo partly drawn)",
    "normalized growth": "0.998 (inactive)"
  },
  {
    "Compound": "CC(=O)Nc1ccc(O)cc1",
    "normalized growth": "0.984 (inactive)"
  },
  {
    "Compound": "COc1ccc(-c2coc3cc(O)cc(O)c3c2=O)cc1",
    "normalized growth": "0.365 (active)"
  },
  {
    "Compound": "N[C@@H]1CONC1=O",
    "normalized growth": "1.02 (inactive)"
  },
  {
    "Compound": "CCCCCCCCCc1ccc(O)cc1",
    "normalized growth": "0.136 (active)"
  },
  {
    "Compound": "NCCc1cccc(O)c1",
    "normalized growth": "0.992 (inactive)"
  }
]
